- assay_protocol: solvent given as SMILES
- protocol_conditions: in CC#N
Label condition not met if emission maximum falls below 500 nm; label condition met in every other case.

Hi team, for "CSc1cc(-c2cc3cc4c5c(c3oc2=O)CCCN5CCC4)oc(=O)c1C#N" , is the recorded emission maximum at or above 500 nm? condition met

Hi team, for "CCCCCCCC[n+]1ccc(-c2cc[n+](CCCCCCCC)cc2)cc1" , is the recorded emission maximum at or above 500 nm? condition not met

Hi team, for "O=c1oc2cc(S(=O)(=O)O)c3ccccc3c2nc1-c1ccccc1" , is the recorded emission maximum at or above 500 nm? condition not met

Hi team, for "Clc1ccc(/C=C/c2ccc(-c3nc4c5cccnc5c5ncccc5c4[nH]3)cc2)cc1" , is the recorded emission maximum at or above 500 nm? condition not met

Hi team, for "Nc1ccc(/C=C/c2cccnc2)cc1" , is the recorded emission maximum at or above 500 nm? condition not met

Hi team, for "c1ccc(-c2nc3ccccc3nc2-c2ccccc2)cc1" , is the recorded emission maximum at or above 500 nm? condition not met

Hi team, for CCOC(=O)C1=C(C)NC2=C(C(=O)c3ccccc32)C1c1ccc(N(C)C)cc1 (stereo not drawn) , is the recorded emission maximum at or above 500 nm? condition met

Hi team, for CCCCC(CC)Cn1c2ccc(C(=C(C#N)C#N)c3ccccc3)cc2c2c(-c3ccc(Br)cc3)c3c(c(-c4ccc(Br)cc4)c21)c1cc(C(=C(C#N)C#N)c2ccccc2)ccc1n3CC(CC)CCCC (stereo not drawn) , is the recorded emission maximum at or above 500 nm? condition met

Hi team, for "CC(C)(C)c1ccc(-c2nc3c4ccc(-c5ccc6ccc7cccc8ccc5c6c78)cc4c4cc(-c5ccc6ccc7cccc8ccc5c6c78)ccc4c3n2-c2ccc(C(C)(C)C)cc2)cc1" , is the recorded emission maximum at or above 500 nm? condition not met

Hi team, for "CCN(CC)c1ccc2c(-c3ccccc3C(=O)[O-])c3ccc(=[N+](CC)CC)cc-3oc2c1" , is the recorded emission maximum at or above 500 nm? condition met

Hi team, for "CC1=C(C#Cc2ccccc2)C2=Cc3c(C#Cc4ccccc4)c(C)c(C)n3[B-](F)(F)[N+]2=C1C" , is the recorded emission maximum at or above 500 nm? condition met

Hi team, for "CC1=[N+]2C(=C(c3ccccc3)c3c4c(c(C)n3[B-]2(F)F)C2CCC4CC2)C2=C1C1CCC2CC1" , is the recorded emission maximum at or above 500 nm? condition met
